# Test system: SF-268 CNS
# METHOD_SUMMARY: NCI tumour cell line growth inhibition, 48 h
Given measured TGI, output Y if it is greater than or equal to 30 µM and N if not.

Some solved entries appear below for comparison.
COMPOUND	CLASSIFICATION
CCCC(N)C(=O)c1ccccc1 (stereo not given)	Y
O=C(/C=C/c1ccccc1Cl)c1cccc2ccccc12	N
O=[N+]1ON=C(c2ccccc2)C1=C1C(c2c(-c3ccccc3)no[n+]2[O-])=NON1[O-]	Y

Problem: In plain terms: is recorded TGI at least 30 µM for CCOc1ccc(/C(C=O)=C(\Cl)c2ccc(OC)c(OC)c2)cc1 ?
Solution: Y

Problem: Please do the same for O=C(N/C(=C\c1ccc(/C=C(\NC(=O)c2ccccc2)c2nc3cc(Cl)ccc3[nH]2)cc1)c1nc2cc(Cl)ccc2[nH]1)c1ccccc1 as well.
Solution: Y

Problem: And then N#Cc1ccsc1NC(=O)COC(=O)c1cccc(S(=O)(=O)N2CCc3ccccc32)c1 , what is it?
Solution: Y

* * *

Entries and their TGI
# System: XF 498 CNS
# METHOD_SUMMARY: NCI tumour cell line growth inhibition, 48 h
Please state the figure in µM; there is no need to write the unit.

MOLECULE	UNITS_LABEL	TGI
CCOc1ccc(/C(C=O)=C(\Cl)c2ccc(OC)c(OC)c2)cc1	µM	79.2

Let us move to another entry and its TGI.
Problem: Would you mind telling me what TGI value was observed for CC1(c2cccc(N)c2)C2C(=O)NC(=O)C1C(=O)NC2=O (centres undefined) ?
Solution: 64.4

* * *

# Tested on: OVCAR-4 ovarian
# METHOD_SUMMARY: NCI tumour cell line growth inhibition, 48 h
ASSAY_READOUT: log10 TGI (log10 of the value in µM)
Log10 applied to TGI; unit prior to transform: µM.

Would you please look over these solved cases?
COMPOUND	VALUE_MEASURED
O=C1C(Nc2ccc(Br)cc2)=C(I)C(=O)c2ncccc21	0.09
Cc1[nH]c(C(=O)Nc2ccccc2OC2CCNCC2)c(Cl)c1Cl	0.23

Problem: log10 TGI lookup needed for Cc1ccc(/C=C/C(=N/N=C(N)N)c2ccccc2)cc1 , thanks.
Solution: 1.19

Problem: Thanks! And COc1cccc(-n2cc(-c3nc(Nc4cc(C)[nH]n4)c4ccccc4n3)nn2)c1 ?
Solution: 0.98

Problem: Same question, COc1cc2oc(-c3ccc(O)cc3O)c(CC=C(C)C)c(=O)c2c(O)c1/C=C/C(C)C this time
Solution: 0.93

Problem: Another: CCCC[n+]1c(/C=C\c2c(OC)cc(OC)cc2OC)ccc2ccccc21
Solution: 1.13

Problem: Would you mind doing CO/C(=C/C(=O)C(Cl)(Cl)Cl)CC/C(=C\C(=O)C(Cl)(Cl)Cl)OC as well?
Solution: 1.71

Problem: Now consider C=C1CC[C@@H]2[C@](C)(COC(C)=O)[C@H](OC(C)=O)CC[C@@]2(C)[C@@H]1CC(Nc1ccc(S(=O)(=O)Nc2cc(C)on2)cc1)C1=CCOC1=O (some centres undefined) .
Solution: 1.02

* * *

# Test system: 786-0 renal
# METHOD_SUMMARY: NCI tumour cell line growth inhibition, 48 h
Measured TGI of individual entries

COMPOUND	SYSTEM_NAME	ASSAY_READOUT	VALUE_MEASURED
CSc1ccc(OCC2OC2O)cc1 (stereo unspecified)	786-0 renal	TGI	> 100 µM
COc1ccc2c(c1)[n+]([O-])c(-c1ccc(Br)cc1)c(N)[n+]2[O-]	786-0 renal	TGI	> 100 µM
CCOC(=O)CSc1nnc(CSc2nc(-c3ccccc3)c(-c3ccccc3)[nH]2)n1-c1ccccc1	786-0 renal	TGI	> 62.9 µM
CC1(c2cccc(N)c2)C2C(=O)NC(=O)C1C(=O)NC2=O (stereo unspecified)	786-0 renal	TGI	> 100 µM

Problem: I am curious: what TGI value has been reported for Clc1ccc(CNc2nc(Cl)c3[nH]cnc3n2)cc1Cl ?
Solution: > 100 µM

Problem: And for COc1cc2c(cc1OC)CN1CCCc3cc(OC)c(OC)cc3C1C2 (stereo unspecified) ?
Solution: > 100 µM

* * *

# System: SF-268 CNS
# METHOD_SUMMARY: NCI tumour cell line growth inhibition, 48 h; in the data active = GI50 below about 0.43 µM; inactive = the rest
Pick one: active, inactive

Worked cases, answers included:
COMPOUND	CLASSIFICATION
CCN(CC)CCOc1ccc(/C=C2\C[C@H]3[C@H]4CC=C5C[C@@H](O)CC[C@]5(C)[C@H]4CC[C@]3(C)[C@H]2O)cc1OC	inactive
O=[N+]([O-])c1ccc(Sc2nc(Cl)nc(NC3CCCC3)n2)cc1	inactive
CC(C)(CCN=C(N)Nc1ccccn1)c1ccc(C(F)(F)F)cc1	inactive
CC(=O)[CH-]C(=O)c1ccccc1.CC(=O)[CH-]C(=O)c1ccccc1.CC1(C)OCC(C2OC3OC(C)(C)OC3C2[O-])O1.CC1(C)OCC(C2OC3OC(C)(C)OC3C2[O-])O1.[Ti+4] (centres undefined)	inactive
C=C1COC(O)(C2OCOC(C3CC(=O)NC(=O)C3)C2O)C1C (centres undefined)	active

Problem: Check the results log: what was the call for CCCCCCCCCCCCCCCC(=O)N[C@H](/C=C/[C@H](O)CCCCCCCCCCCCC)CO ?
Solution: inactive

Problem: And then Cc1cccc2nc3cccc(C(=O)NCCNCCNCCNC(=O)c4cccc5nc6cccc(C)c6nc45)c3nc12 , what is it?
Solution: active

Problem: Subsequent entry: N#Cc1ccsc1NC(=O)COC(=O)c1cccc(S(=O)(=O)N2CCc3ccccc32)c1
Solution: inactive

Problem: # iterate: O=C(c1ccco1)c1c(C(F)(F)F)nc2ccc(C(F)(F)F)cc2[n+]1[O-]
Solution: inactive

Problem: Follow-up entry: C[N+](C)(CCCCCC[N+](C)(C)CCCN1C(=O)c2cc3ccccc3cc2C1=O)CCCN1C(=O)c2cc3ccccc3cc2C1=O
Solution: inactive

* * *

# System: MCF7 breast
# METHOD_SUMMARY: NCI tumour cell line growth inhibition, 48 h
TGI values for the compounds below.

Worked examples, 5 compounds total:
COMPOUND	TGI
Clc1nc(Cl)c2c3c(sc2n1)CCCC3	> 100 µM
O=C(O)C1C2C=CC(C2)C1C(=O)O (stereo unspecified)	> 100 µM
CC(=O)Nc1ccc(-c2nc3ccccc3s2)cc1C	> 100 µM
C/C(=N\NC(=S)N1CCN(C2CCCCCC2)CC1)c1ccccn1	2.05 µM
Cc1ccc(/C=C/C(=N/N=C(N)N)c2ccccc2)cc1	12.4 µM

Proceed to the following item.
Problem: What value of TGI on MCF7 breast does O=C(NNc1ccc(F)cc1)C1CCC(CNS(=O)(=O)c2ccc(Cl)c(Cl)c2)CC1 (stereo unspecified) have?
Solution: > 50 µM

* * *

# Tested on: M14 melanoma
# METHOD_SUMMARY: NCI tumour cell line growth inhibition, 48 h
GI50 values for the molecules below.

As a guide, the following entries are already answered.
STRUCTURE_AS_SMILES	GI50
COc1cc(/C=C2\Oc3cc(OCCCN4CCCC4)ccc3C2=O)cc(OC)c1	1.83 µM
O=C1C(=O)c2ccccc2C(O)=C1CCCc1ccc(C2CCCC2)cc1	8.86 µM
CC(=O)c1ccc(Nc2nc(Nc3ccc(F)cc3)nc(Nc3ccc(F)cc3)n2)cc1	6.52 µM

Alright, here's another molecule for you.
Problem: Recorded GI50 for COc1ccc(-c2nc(Nc3ccc(-c4nc5ccccc5[nH]4)cc3)nc(N3CCOCC3)n2)cc1 , please?
Solution: 1.94 µM

* * *

# Tested on: SF-268 CNS
# METHOD_SUMMARY: NCI tumour cell line growth inhibition, 48 h
ASSAY_READOUT: TGI

COMPOUND	VALUE_MEASURED
Cc1cc(=O)[nH]c2cc(NC(=O)C(CCCN=C(N)N)NC(=O)OCc3ccccc3)ccc12 (centres undefined)	> 100 µM
CO[C@]12C=C/C(=C(/C(=O)OCc3cccnc3)C(=O)CCCCCCCC[C@@]3(OC)C=C/C(=C(/C(=O)OCc4cccnc4)C(=O)CCCCCCCC1)O3)O2	6.53 µM

Problem: Enter reported TGI observed with SF-268 CNS for O=c1c(C2=NCCC2)c(-c2ccc[nH]2)[nH]n1-c1ccccc1
Solution: > 100 µM

Problem: Also CCOC(=O)C1=c2[nH]c3cccc4cccc(c43)n2C(=O)CC1c1ccccc1 (centres undefined) , if possible.
Solution: > 100 µM

Problem: Also need CC1=C(C(=O)Nc2ccc3[nH]ncc3c2)C(c2ccc(Cl)c(Cl)c2)CC(=O)N1 (centres undefined) , thanks.
Solution: > 25 µM

Problem: Moving on to COC(=O)/C=C(/C(=O)OC)c1cc2ccc3c([nH]c4ccccc43)c(C)c-2c1
Solution: 21.4 µM

Problem: Request: COc1ccc(-c2nn(-c3cccc(NC(=O)Nc4ccccc4)c3)cc2-c2ccncc2)cc1Cl
Solution: 7 µM

Problem: Can you handle C/C(=N\NC(=S)N1CCN(C2CCCCCC2)CC1)c1ccccn1 next?
Solution: 5.5 µM

Problem: Here is the next compound: CCC(=O)NC(Nc1cccc(F)c1)(C(F)(F)F)C(F)(F)F
Solution: > 100 µM
